tested on: Mia PaCa-2 cells; test: cell proliferation assay in Mia PaCa-2 pancreatic cancer cells; format: cell-based; conditions: Homo sapiens, MIA PaCa-2, 96 h; SRB staining, four days exposure, 0.2 μM to 200 μM (FIG. 13A legend); read-out: estimated IC50, inhibition of MiaPaCa-2 cell growth
property label: pIC50
Numbers only, as −log10 of the molar value.

Challenge: Which measured pIC50 value corresponds to O=C1C=C(NCCc2cc(Br)c(O)c(Br)c2)C(=O)c2ncccc21 ?
Response given: 5.92

====

target: PRL-1 (Homo sapiens, UniProt Q93096); assay: in vitro PRL-1 phosphatase enzymatic assay (tyrosine phosphatase / DiFMUP assay); type: biochemical; settings: PRL-1 inhibitors identified by library screening; read-out: IC50
Sequence (Q93096 whole entry): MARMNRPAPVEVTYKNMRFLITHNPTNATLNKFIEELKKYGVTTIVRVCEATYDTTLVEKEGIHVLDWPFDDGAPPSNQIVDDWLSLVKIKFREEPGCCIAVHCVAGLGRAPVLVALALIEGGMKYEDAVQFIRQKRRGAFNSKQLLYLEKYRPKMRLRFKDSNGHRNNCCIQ
property label: IC50 (µM)
Give bare numbers, in µM.

Before answering, review these 8 worked examples.
O=C(O)c1ccc2c(c1)C(=O)N(c1cccc3ccccc13)C2=O    72
COC(=O)c1nc(O)c2ccccc2c1O    12.5
Brc1cccc(C2=NC(c3ccccc3)=C3C=CC=CN3C2)c1    0.1
CCC1=NN(c2ccccc2)C(=O)C(CC(=O)Nc2ccccc2)c2cc(OC)c(OC)cc21 (stereo not shown)    66
O=C1C(O)=C([N+](=O)[O-])C(=O)c2ccccc21    17
Nc1cc(S(=O)(=O)C(F)(F)F)ccc1C(=O)O    25
CN1C(=O)C(=O)c2cc([N+](=O)[O-])ccc21    33
COc1cc(NCCC(C)=O)c2ncccc2c1    41

I need IC50 for every entry listed below, if you could help.
1. CC(=O)Oc1cc(OC(C)=O)c2c(c1)OC(=O)C(Cl)C2C (stereo not shown)
2. O=C1C=Cc2cc(Br)ccc2C1=O

Response given:
1. 64
2. 8.7
